Where do the numbers come from? From the supplement of paper PMC10981050.

compounds and their reported cell viability
# Test system: MOLM14
# Measurement protocol: cell viability relative to vehicle control; higher = less cytotoxic;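 further: after 48 h exposure read by CellTiter-Glo luminescence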
# Measurement setup: 10 µM; SRSF2 genotype: SRSF2 P95H/wt
Kindly answer with a numeric value in %, unit omitted.

S=c1nc[nH]c2nc[nH]c12 [6-Mercaptopurine (6-MP) Monohydrate]: 87.4
N#Cc1ccc2ncnc(NCCc3ccccc3)c2c1 [Senexin A]: 77.1

From here, focus on the item given below.
Please report the recorded cell viability for Cc1cccc(C)c1OCC(=O)N[C@@H](Cc1ccccc1)[C@@H](O)C[C@H](Cc1ccccc1)NC(=O)[C@H](C(C)C)N1CCCNC1=O [Lopinavir (ABT-378)] .
92.2

* * *

# Test system: OCI-AML2
# Measurement protocol: cell viability relative to vehicle control; higher = less cytotoxic
# Measurement setup: 10 µM; SRSF2 genotype: wt/wt
Structures can show the parent of a compound that is named as a salt.
molecules and their reported cell viability
Kindly answer with a numeric value in %, unit omitted.

Please report the recorded cell viability for CCOC(=O)[C@H](CCc1ccccc1)N[C@@H](C)C(=O)N1Cc2cc(OC)c(OC)cc2C[C@H]1C(=O)O [Moexipril HCl] .
95.9

* * *

# System: MARIMO
# Measurement protocol: cell viability relative to vehicle control; higher = less cytotoxic
# Measurement setup: 10 µM; SRSF2 genotype: SRSF2 P95H/wt
compounds and their reported cell viability
State the result as a value with its unit after it.

C[C@@H]1O[C@@H]1P(=O)(O)O: 109%

Please report the recorded cell viability for "Cc1oc2nc3c(c(NC(=O)CN4CCCC4=O)c2c1C)CCCC3" .
93.7%

Please report the recorded cell viability for "C=CC(=O)N1CC(N2CCN(C(=O)CNc3cc(C4(C)CC4)c(Cl)cc3O)CC2)C1" .
88.9%

Please report the recorded cell viability for "CO[C@H]1C[C@@H]2CC[C@@H](C)[C@@](O)(O2)C(=O)C(=O)N2CCCC[C@H]2C(=O)O[C@H]([C@H](C)C[C@@H]2CC[C@@H](OP(C)(C)=O)[C@H](OC)C2)CC(=O)[C@H](C)/C=C(\C)[C@@H](O)[C@@H](OC)C(=O)[C@H](C)C[C@H](C)/C=C/C=C/C=C/1C" .
75%

* * *

# Test system: MOLM14
# Measurement protocol: cell viability relative to vehicle control; higher = less cytotoxic
# Measurement setup: 10 µM; SRSF2 genotype: SRSF2 P95H/wt
Measured property: cell viability (%)
Kindly answer with a numeric value in %, unit omitted.

CCN(C)S(=O)(=O)Nc1ccc(F)c(C(=O)c2c[nH]c3ncc(-c4cnc(C5CC5)nc4)cc23)c1F: 79.3
Cc1cccc(-c2[nH]c(C(C)(C)C)nc2-c2ccc3c(c2)OCO3)n1: 84.9
CCC[C@H](NC(=O)[C@@H]1[C@H]2CCC[C@H]2CN1C(=O)[C@@H](NC(=O)[C@@H](NC(=O)c1cnccn1)C1CCCCC1)C(C)(C)C)C(=O)C(=O)NC1CC1 [Telaprevir (VX-950)]: 89.5
Cc1c(C)c(NCC(=O)N(C)C2CCN(Cc3ccc(C(N)=O)cc3)CC2)c(C)c(C)c1N: 87.1

From here, focus on the item given below.
Please report the recorded cell viability for CC(C)(OCc1nn(Cc2ccccc2)c2ccccc12)C(=O)O [Bindarit] .
101

* * *

# Test system: K562
# Measurement protocol: cell viability relative to vehicle control; higher = less cytotoxic
# Measurement setup: 10 µM; SRSF2 genotype: SRSF2 wt/wt
Where a name gives a salt, the structure may show the parent alone.
Hi! Just check whether cell viability is below 90%. Below gives TRUE, equal or above gives FALSE.

CC(C)Nc1cc(-c2c[nH]c(C(=O)N[C@H](CO)c3cccc(Cl)c3)c2)c(Cl)cn1: TRUE
C=CC(=O)N[C@H]1CCOC[C@H]1Nc1ncc2cc(-c3c(Cl)c(OC)cc(OC)c3Cl)ccc2n1: TRUE
Cc1nccn1CC1CCc2c(c3ccccc3n2C)C1=O (centres undefined) [Ondansetron hydrochloride (Zofran)]: FALSE

Is cell viability of CC(C)[C@H](N)C(=O)OCCOCn1cnc2c(=O)nc(N)[nH]c21 [Valaciclovir HCl] strictly below 90%?
FALSE

Is cell viability of CCCC(CCC)C(=O)O [Valproic acid sodium salt (Sodium valproate)] strictly below 90%?
FALSE

Is cell viability of COc1ccccc1OCC(O)CN1CCN(CC(=O)Nc2c(C)cccc2C)CC1 (centres undefined) [Ranolazine dihydrochloride] strictly below 90%?
FALSE

Is cell viability of CC(C)=CCC/C(C)=C/CC/C(C)=C/CCC(=O)OC/C=C(\C)CCC=C(C)C [Gefarnate] strictly below 90%?
FALSE

Is cell viability of COc1ccc(S(=O)(=O)N(CCO)c2ccccc2CN(C)C/C=C/c2ccc(Cl)cc2)cc1 [KN-93 Phosphate] strictly below 90%?
TRUE

* * *

# Test system: MOLM14
# Measurement protocol: cell viability relative to vehicle control; higher = less cytotoxic
# Measurement setup: 10 µM; SRSF2 genotype: SRSF2 P95H/wt
Hi! Just check whether cell viability is below 90%. Below gives true, equal or above gives false.

Answered examples (5):
CCn1cc(-c2cccc(C(F)(F)F)c2)c2sc(C(=N)NC3CCS(=O)(=O)CC3)cc2c1=O: true
CCOC(=O)/C=C\C(=O)OCC [Diethylmaleate]: false
Cc1cc(F)c(Nc2ncnc3cc(OCc4ccccc4)ccc23)cc1O: false
CC(=O)Cc1cc(=O)c2c(C)cc(O)c([C@@H]3O[C@H](CO)[C@@H](O)[C@H](O)[C@H]3O)c2o1: false
CN(C)C1CCN(C(=O)c2ccc(NC(=O)Nc3ccc(-c4nc(N5CCOCC5)nc(N5CCOCC5)n4)cc3)cc2)CC1: true

Is cell viability of "N#CSc1cc(SC#N)c(N)nc1N" strictly below 90%?
true

Is cell viability of "O=C(Nc1cccc(Cl)c1)c1ccccn1" strictly below 90%?
false

* * *

# System: MOLM14
# Measurement protocol: cell viability relative to vehicle control; higher = less cytotoxic
# Measurement setup: 10 µM; SRSF2 genotype: SRSF2 wt/wt
Measured property: cell viability (%)
Kindly answer with a numeric value in %, unit omitted.

CC[C@H]1OC(=O)[C@@](C)(F)C(=O)[C@H](C)[C@@H](O[C@@H]2O[C@H](C)C[C@H](N(C)C)[C@H]2O)[C@](C)(OC)C[C@@H](C)C(=O)[C@H](C)[C@H]2N(CCCCn3cc(-c4cccc(N)c4)nn3)C(=O)O[C@]12C: 94.9
CC(C(=O)O)c1ccc2c(c1)Cc1cccnc1O2 (configuration not stated): 105
O=C1c2ccccc2-c2n[nH]c3cccc1c23: 33.1
COc1cc(C[C@H](C)[C@H](C)Cc2ccc3c(c2)OCO3)ccc1O: 83.1
Clc1ccc(CSC(Cn2ccnc2)c2ccc(Cl)cc2Cl)cc1 (configuration not stated) [Sulconazole Nitrate]: 44.8
CC(C)c1nc(N(C)S(C)(=O)=O)nc(-c2ccc(F)cc2)c1/C=C/[C@@H](O)C[C@@H](O)CC(=O)O: 105

From here, focus on the item given below.
Please report the recorded cell viability for "O=C(O)Cn1nnc(-c2cc(N3CCC(Oc4cc(F)ccc4Br)CC3)no2)n1" .
103

* * *

# Tested on: OCI-AML2
# Measurement protocol: cell viability relative to vehicle control; higher = less cytotoxic
# Measurement setup: 10 µM; SRSF2 genotype: P95H/wt
Structures can show the parent of a compound that is named as a salt.
Measured property: cell viability (%)
Kindly answer with a numeric value in %, unit omitted.

Solved cases (5 shown):
Cc1ccc(C(=O)Nc2cccc(C(F)(F)F)c2)cc1Nc1nc(-c2cccnc2)nc2c1cnn2C: 87
O=C(Nc1ccc(O)cc1)c1ccccc1O: 99
CCS(=O)(=O)c1cccc(-c2cc(C(=O)NC3CCN(C)CC3)c(C)c3[nH]c4ncc(C)cc4c23)c1: 4.55
C[C@@H](Oc1cc(-n2cnc3ccc(CN4CCN(C)CC4)cc32)sc1C(N)=O)c1ccccc1C(F)(F)F: 4.11
CN1CCN2c3ccccc3Cc3ccccc3C2C1 (centres undefined) [Mianserin HCl]: 91.2

Please report the recorded cell viability for "Cc1ccc(S(=O)(=O)C=CC#N)cc1" .
0.28

Please report the recorded cell viability for "COc1ccc(NS(=O)(=O)c2sc3ccc(Cl)cc3c2C)cc1N1CCNCC1" .
87.9

Please report the recorded cell viability for C[C@]1(O)C[C@@H](O)[C@]2(O)C=CO[C@@H](O[C@H]3O[C@H](CO)[C@@H](O)[C@H](O)[C@H]3O)[C@@H]21 [Harpagide] .
97.6

Please report the recorded cell viability for COC1C(O)C(O)C(O)C(O)C1O (centres undefined) .
99.7

* * *

# Test system: MARIMO
# Measurement protocol: cell viability relative to vehicle control; higher = less cytotoxic
# Measurement setup: 10 µM; SRSF2 genotype: SRSF2 wt/wt
Where a name gives a salt, the structure may show the parent alone.
compounds and their reported cell viability
Kindly answer with a numeric value in %, unit omitted.

Solved cases (8 shown):
N[C@@H](Cc1cc(I)c(Oc2cc(I)c(O)c(I)c2)c(I)c1)C(=O)O [Levothyroxine sodium]: 104
CC(=O)O[C@]1(C(C)=O)CC[C@H]2[C@@H]3CCC4=CC(=O)CCC4=C3[C@@H](c3ccc(N(C)C)cc3)C[C@@]21C [Ulipristal acetate]: 95.2
CC(C)=CCC[C@](C)(O[C@@H]1O[C@H](CO[C@@H]2O[C@@H](CO)[C@H](O)[C@H]2O)[C@@H](O)[C@H](O)[C@H]1O)[C@H]1CC[C@]2(C)[C@@H]1[C@H](O)C[C@@H]1[C@@]3(C)CC[C@H](O[C@@H]4O[C@H](CO)[C@@H](O)[C@H](O)[C@H]4O[C@@H]4O[C@H](CO)[C@@H](O)[C@H](O)[C@H]4O)C(C)(C)[C@@H]3CC[C@]12C [Ginsenoside Rc]: 101
COc1ccccc1N1CCN(CC(O)COc2cccc3ccccc23)CC1 (stereo not given) [Naftopidil Dihydrochloride]: 65.2
CC1CNC(=O)NC1=O (stereo not given) [Dihydrothymine]: 108
CN(C)CCc1c[nH]c2ccc(CS(=O)(=O)N3CCCC3)cc12 [Almotriptan malate (Axert)]: 101
C[C@@H]1CC[C@]2(C(=O)O[C@@H]3O[C@H](CO)[C@@H](O)[C@H](O)[C@H]3O)CC[C@]3(C)C(=CC[C@@H]4[C@@]5(C)CC[C@H](O)[C@@](C)(CO)[C@@H]5CC[C@]43C)[C@@H]2[C@]1(C)O [Pedunculoside]: 97.5
Cc1ccc(-n2sc(=O)n(Cc3ccc(F)cc3)c2=O)cc1: 72.6

Please report the recorded cell viability for NC(=O)[C@@H]1CC[C@@H]2CN1C(=O)N2OS(=O)(=O)O [Avibactam sodium] .
106

Please report the recorded cell viability for "CCc1c2c(nc3ccc(O)cc13)-c1cc3c(c(=O)n1C2)COC(=O)[C@]3(O)CC" .
3.23

Please report the recorded cell viability for OCC1(O)COc2cc(O)ccc2-c2cc(O)c(O)cc2C1 (stereo not given) .
97.1

Please report the recorded cell viability for Nc1ncnc2c1ncn2C1CC(O)C(CO)O1 (stereo not given) [2'-Deoxyadenosine monohydrate] .
94.5

Please report the recorded cell viability for O=C(/C=C\n1cnc(-c2cc(C(F)(F)F)cc(C(F)(F)F)c2)n1)NNc1ccccn1 [Verdinexor (KPT-335)] .
22.1

Please report the recorded cell viability for "CC(=O)O/N=C1/C(c2c(O)[nH]c3cc(Br)ccc23)=Nc2ccccc21" .
88.4

Please report the recorded cell viability for CN1CCC[C@H]1c1cccnc1 [nicotine ditartrate] .
117
